Reference source for all entries: patent US20200369728A1

The reader will find reported caspase 0.3 μM values listed item by item below.
Test system: Caspase 3
Run description: Caspase 3 detection assay in SJSA1 cells
Type: cell-based
Protocol conditions: 0.3 μM, SJSA1, 48 h, Caspase 3 activation over DMSO-treated cells
Result type: caspase 0.3 μM

1) CC[C@H](C)[C@H](NC(=O)[C@H](C)NC(=O)[C@H](C)NC(=O)[C@]1(C)CCCC=CCCCCCC[C@@](C)(NC(=O)[C@H](Cc2ccccc2)NC(=O)[C@@H](NC(=O)[C@H](CC(C)C)NC(C)=O)[C@@H](C)O)C(=O)N[C@@H](C)C(=O)N[C@@H](Cc2ccc(O)cc2)C(=O)N[C@@H](Cc2c[nH]c3ccccc23)C(=O)N[C@@H](C)C(=O)N[C@@H](C)C(=O)N[C@@H](CC(C)C)C(=O)N1)C(=O)N[C@@H](C(N)=O)C(C)C (single isomer, unassigned) ... 1
2) CC(=O)N[C@@H](CC(C)C)C(=O)N[C@H](C(=O)N[C@@H](Cc1ccccc1)C(=O)N[C@]1(C)CCCCCCC=CCCC[C@@](C)(C(=O)N[C@@H](C)C(=O)N[C@@H](C)C(=O)N[C@@H](C)C(=O)N[C@@H](C)C(=O)N[C@@H](C)C(=O)N[C@@H](C)C(=O)N[C@H](C)C(N)=O)NC(=O)[C@H](CC(C)C)NC(=O)[C@H](CCC(N)=O)NC(=O)[C@H](C)NC(=O)[C@H](Cc2c[nH]c3ccccc23)NC(=O)[C@H](Cc2ccc(O)cc2)NC(=O)[C@H](C)NC1=O)[C@@H](C)O (single isomer, unassigned) [compound 317] ... 3
3) CC[C@H](C)[C@H](NC(=O)[C@H](C)NC(=O)[C@H](C)NC(=O)[C@]1(C)CCCC=CCCCCCC[C@@](C)(NC(=O)[C@H](Cc2ccccc2)NC(=O)[C@@H](NC(=O)[C@H](CCC(=O)O)NC(C)=O)[C@@H](C)O)C(=O)N[C@@H](CCC(=O)O)C(=O)N[C@@H](Cc2c[nH]cn2)C(=O)N[C@@H](Cc2c[nH]c3ccccc23)C(=O)N[C@@H](C)C(=O)N[C@@H](CCC(N)=O)C(=O)N[C@@H](CC(C)C)C(=O)N1)C(=O)N[C@H](C)C(N)=O (single isomer, unassigned) ... 1
4) CC(=O)N[C@@H](CC(C)C)C(=O)N[C@H](C(=O)N[C@@H](Cc1ccccc1)C(=O)N[C@]1(C)CCCCCCC=CCCC[C@@](C)(C(=O)N[C@@H](C)C(=O)N[C@@H](C)C(=O)N[C@@H](Cc2ccccc2)C(=O)N[C@H](C)C(N)=O)NC(=O)[C@H](CC(C)C)NC(=O)[C@H](CCC(N)=O)NC(=O)[C@H](C)NC(=O)[C@H](Cc2c[nH]c3ccccc23)NC(=O)[C@H](Cc2ccc(O)cc2)NC(=O)[C@H](CCC(=O)O)NC1=O)[C@@H](C)O (single isomer, unassigned) [compound 218] ... 1
